Reported Ered (V) is given for each of the following compounds.
# PROCEDURE SUMMARY: Ferric ions (Fe^3+) reducing antioxidant power by cyclic voltammetry
# EXPERIMENTAL CONDITIONS: compound alone 0.5 mM in 0.1 M HClO4; 2nd Ered column
MEASURED ENDPOINT: Ered (V)

1. Cc1csc(N/N=C/c2ccc(O)cc2O)n1.Cl [Compound 5b] :: 0.327
2. C/C(=N\Nc1nc(-c2ccc(O)c(O)c2)cs1)c1ccc(O)cc1O.Cl [Compound 8a] :: 0.296
3. Cl.Oc1ccc(/C=N/Nc2nc(-c3ccc(O)c(O)c3)cs2)c(O)c1 [Compound 8b] :: 0.303
4. C/C(=N\Nc1nc(C)cs1)c1ccc(O)cc1O [Compound 5a] :: 0.318

====

# PROCEDURE SUMMARY: Cyclic voltammetry of the compounds on graphite-based SPE
# Assay type: physicochemical
# EXPERIMENTAL CONDITIONS: 2nd reduction peak; CV, 0.1 M HClO4, graphite-based SPE
Hi! Just check whether Ered (V) is below 0.09 V. Below gives class 1, equal or above gives class 0.

1) Br.Oc1ccc(/C=N/Nc2nc(-c3ccccc3)cs2)c(O)c1 [Compound 6b] :: class 1
2) Cc1csc(N/N=C/c2ccc(O)cc2O)n1.Cl [Compound 5b] :: class 1
3) Br.C/C(=N\Nc1nc(-c2ccc(O)c(C(N)=O)c2)cs1)c1ccc(O)cc1O [Compound 7a] :: class 0
4) C/C(=N\Nc1nc(-c2ccc(O)c(O)c2)cs1)c1ccc(O)cc1O.Cl [Compound 8a] :: class 0
5) Br.C/C(=N\Nc1nc(-c2ccccc2)cs1)c1ccc(O)cc1O [Compound 6a] :: class 0

====

# key: entry, value: Eox (V)
# PROCEDURE SUMMARY: DPPH˙ radical scavenging by cyclic voltammetry
# EXPERIMENTAL CONDITIONS: compound alone 0.5 mM in 0.1 M HClO4; 1st Eox column
# Procedure: […] The radical scavenging properties of the novel compounds and the other antioxidants were determined using a stock DPPH˙ radical solution prepared in absolute ethanol. […] The remaining redox activity of DPPH was measured by cycling the potential between −0.7 V and 1.2 V, with a scan rate of 0.1 V/s. […]
MEASURED ENDPOINT: Eox (V)

1) Cl.Oc1ccc(/C=N/Nc2nc(-c3ccc(O)c(O)c3)cs2)c(O)c1 [Compound 8b] :: 0.259
2) Br.C/C(=N\Nc1nc(-c2ccc(O)c(C(N)=O)c2)cs1)c1ccc(O)cc1O [Compound 7a] :: 0.205
3) C/C(=N\Nc1nc(-c2ccc(O)c(O)c2)cs1)c1ccc(O)cc1O.Cl [Compound 8a] :: 0.193
4) Br.C/C(=N\Nc1nc(-c2ccccc2)cs1)c1ccc(O)cc1O [Compound 6a] :: 0.232

====

Below, each entry is listed with its recorded Ered (V).
# PROCEDURE SUMMARY: Cyclic voltammetry of the compounds on graphite-based SPE
# Assay type: physicochemical
# EXPERIMENTAL CONDITIONS: 3rd reduction peak; CV, 0.1 M HClO4, graphite-based SPE
MEASURED ENDPOINT: Ered (V)

1) Cl.Oc1ccc(/C=N/Nc2nc(-c3ccc(O)c(O)c3)cs2)c(O)c1 :: 0.325
2) C/C(=N\Nc1nc(-c2ccc(O)c(O)c2)cs1)c1ccc(O)cc1O.Cl :: 0.335
3) Br.Oc1ccc(/C=N/Nc2nc(-c3ccccc3)cs2)c(O)c1 :: 0.401
4) Br.C/C(=N\Nc1nc(-c2ccccc2)cs1)c1ccc(O)cc1O :: 0.379
5) Cc1csc(N/N=C/c2ccc(O)cc2O)n1.Cl :: 0.286
6) C/C(=N\Nc1nc(C)cs1)c1ccc(O)cc1O :: 0.256
